target: T1, human MSLN-hFc protein (Acro, Cat. No. MSN-H5253) (human, UniProt Q13421 296-580); assay: ELISA on coated antigen, antibody 100 nM
T1 construct: the method names the coated protein as human MSLN-hFc (Acro); also called human MSLN full-length protein
T1 sequence (Q13421 other isoform, or with tags, fused parts or gaps limits assumed): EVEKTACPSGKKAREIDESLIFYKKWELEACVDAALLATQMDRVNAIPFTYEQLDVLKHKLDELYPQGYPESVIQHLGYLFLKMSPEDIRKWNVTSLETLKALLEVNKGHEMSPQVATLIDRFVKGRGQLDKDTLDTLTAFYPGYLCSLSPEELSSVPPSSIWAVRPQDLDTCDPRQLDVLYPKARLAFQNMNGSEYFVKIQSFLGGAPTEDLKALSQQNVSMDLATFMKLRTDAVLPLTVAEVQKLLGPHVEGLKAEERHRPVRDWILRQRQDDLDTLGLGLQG
endpointName: OD450 (OD450)
All answers are understood in OD450, so give the number only.

F7.44.20-H10 (scFv, not shown: small tags and cut ends, also called S009-F7.44.20 humanized antibody VH2 + VL2) scFv: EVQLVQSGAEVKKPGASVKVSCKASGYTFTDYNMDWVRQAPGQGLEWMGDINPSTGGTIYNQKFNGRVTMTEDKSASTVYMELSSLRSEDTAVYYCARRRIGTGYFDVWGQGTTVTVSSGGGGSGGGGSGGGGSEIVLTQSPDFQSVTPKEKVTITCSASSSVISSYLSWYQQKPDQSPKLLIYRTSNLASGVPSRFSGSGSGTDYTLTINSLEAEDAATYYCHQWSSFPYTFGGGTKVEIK
3.25

Now consider the entry below.
Task: Look at this binder and give its reported OD450. F7.44.20-H3 (scFv, not shown: small tags and cut ends, also called S009-F7.44.20 humanized antibody VH1 + VL3) scFv: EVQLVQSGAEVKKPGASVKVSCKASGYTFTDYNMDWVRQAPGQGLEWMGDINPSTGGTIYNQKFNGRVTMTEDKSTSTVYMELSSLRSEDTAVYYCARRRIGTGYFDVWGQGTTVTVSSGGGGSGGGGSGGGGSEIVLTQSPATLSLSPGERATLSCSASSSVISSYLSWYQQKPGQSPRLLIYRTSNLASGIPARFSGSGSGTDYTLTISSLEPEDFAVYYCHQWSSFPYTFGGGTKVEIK
Result: 2.96

Data provenance is patent US20250250357A1.
